Each record here notes measured pull-down binding Z-score.
Tested on: TO-3-N3 (biotin conjugate)
protocol: pull-down binding Z-score (relative to library population); higher = stronger binding
experimental_context: RNA library: Library-2
# answer = number (no unit)

Lookup: Give the measured pull-down binding Z-score for `AGUUGUGAUCAACU`
Found: -0.744

New cases:
Lookup: Please report pull-down binding Z-score for the following sequence: `GCUGAAAUUGUUGACACUGUGAGUGCUUUGGUUUAUGAUAAUAAGCUUAAAGCACAUAAAGACAAAUCAGC`
Found: -0.842

Lookup: Please give the documented pull-down binding Z-score of AAAUUUUUGGCUUUGUGUGCUGACUCUAUCAUUAUUGGUGGAGCUAAACUUAAAGCCUUGAAUUU [SHAPE_invivo_SARS-CoV-2_Motif_45]
Found: 0.0535

Lookup: # return recorded pull-down binding Z-score for entry UGGCUGUAGGGCAGCAGUCA [hsa-mir-8079]
Found: 1.29

Lookup: Entry CAGACUCUG [hsa-mir-4326] needs its pull-down binding Z-score filled in; supply it.
Found: 0.067

###

Test system: TO-3-N3-2 (biotin conjugate)
protocol: pull-down binding Z-score (relative to library population); higher = stronger binding
experimental_context: RNA library: Library-2
Consider the reported pull-down binding Z-score of an entry and match it to a band in L: < -0.2; M: ≥ -0.2 and < 0.06; H: ≥ 0.06

Lookup: Using the reported pull-down binding Z-score, which band applies to UUACUGCAGGGAUCUUAGCAGUAC [hsa-mir-583] ?
Found: M

Lookup: Class? Entry: `UGGGUAGAAUUCGAUCUGUCUAUCCA`
Found: L

Lookup: Into which category would you place CCCACGUCGCAUGCGCCCCGGGAAAGCGUGGG [hsa-mir-3180-1_3180-3_3180-2] ?
Found: M

Lookup: Where would GCGCUGCCAGAAACUGGCUGCGC [mismatch-UU] land among the classes by reported pull-down binding Z-score?
Found: L

Lookup: Bin this entry: GGCUCUGGGUCCUGCUCCUUAGAGCA [hsa-mir-2467]
Found: M

Lookup: // return the class label for AGUUGUGAAUUCUCAAAACACCU [hsa-mir-660]
Found: L

Lookup: Sort CUUGGGCCCAUUCCUUUCCUUACCCUAC [hsa-mir-6798] into one of the categories.
Found: H

Lookup: # bin lookup: classify CUUUAGCUAUUCUGAAUGCCUAAAG [hsa-mir-4662a] by its pull-down binding Z-score
Found: L

---
Lookup: Note: place this sequence into its band. Item: CACACACAAUCACCGUGUG [hsa-mir-3118-2_3118-3_3118-4]
Found: M

###

Tested on: TO-N3-2 (biotin conjugate)
protocol: pull-down binding Z-score (relative to library population); higher = stronger binding
experimental_context: RNA library: Library-2
observable: pull-down binding Z-score
// return just the number, without any unit appended

As a guide, the following entries are already answered.
Lookup: Note down pull-down binding Z-score recorded for AGGCAACAUGGCCGAGAGGCCGGGGCCU [hsa-mir-564]
Found: 0.551

Lookup: Consider the sequence GAGACGCUUUUAAAGUCUC [hsa-mir-3926-2] and give its recorded pull-down binding Z-score.
Found: -1.22

Continuing:
Lookup: Let me know recorded pull-down binding Z-score for AGUAUGGAUUAAAUUUAUAUUUUCCUCGAUACU [hsa-mir-8084] , thanks.
Found: -0.547

Lookup: Give the reported pull-down binding Z-score for this sequence. `CCUAAACGAACAUGAAAUUUCUUGUUUUCUUAGG`
Found: -0.729

Lookup: Indicate the recorded pull-down binding Z-score value for this sequence: UCUGUUUUAAGUAACAGA [hsa-mir-7705]
Found: -1.85

Lookup: Dear colleague, please send me the reported pull-down binding Z-score for CUCUGUAGUUUUCUUAUAGUG [hsa-mir-644a] when you can.
Found: -0.669

Lookup: Give pull-down binding Z-score for the following sequence: GUGGAGGGUGGUGCCGCCGGGGCCGGGCGCUGUUUCAGCUCGCUUCUCCCCCCAC [hsa-mir-1224]
Found: 2.36

Lookup: Please look at this sequence and report its pull-down binding Z-score: CACAGAAAAGUACUGUG [SHAPE_invivo_SARS-CoV-2_Motif_52]
Found: -0.279

Lookup: # return recorded pull-down binding Z-score for entry GCACUACAGCUAAGGCUAUGGAGC [IAV_invivo_M1_M2_7_Motif_13+IAV_invivo_M1_M2_7_Motif_13]
Found: 0.116

Lookup: For the sequence CCAUGGGGGCCUUGCUGUGU [hsa-mir-6808] , give its measured pull-down binding Z-score value.
Found: 1.04
